assay-notes: Plasma pharmacokinetics of pazopanib in patients, non-compartmental analysis
Type: in vivo, human
condition-summary: P2B MTD; pazopanib 800 mg daily alone (D21C1); N=5
readout-type: C24, geometric mean (95% CI) (µg/mL)
Number in µg/mL, nothing else.

input: GET /values?readout=C24, geometric mean (95% CI)&item= Cc1ccc(Nc2nccc(N(C)c3ccc4c(C)n(C)nc4c3)n2)cc1S(N)(=O)=O [Pazopanib]
output: 31.9

----------
assay-notes: Plasma pharmacokinetics of pazopanib in patients, non-compartmental analysis
Format: in vivo, human
condition-summary: human, plasma, oral, Pazopanib mean C24h plasma concentration, P2 both schedules
readout-type: concentration at 24 h

input: Reported concentration at 24 h, compound Cc1ccc(Nc2nccc(N(C)c3ccc4c(C)n(C)nc4c3)n2)cc1S(N)(=O)=O [Pazopanib] : ____
output: > 35000 ng/mL

----------
assay-notes: Plasma pharmacokinetics of pazopanib in patients, non-compartmental analysis
Type: in vivo, human
condition-summary: human, plasma, oral, 800 mg, Cmax, geometric mean (95% CI), P1; pazopanib 800 mg daily alone (D14); N=7
readout-type: Cmax

input: Consider the molecule shown here: Cc1ccc(Nc2nccc(N(C)c3ccc4c(C)n(C)nc4c3)n2)cc1S(N)(=O)=O What is its recorded Cmax?
output: 49700 ng/mL

----------
Format: in vivo, human
condition-summary: human, plasma, oral, 4 mg
readout-type: Tmax (h)
Value expressed in h; do not type the unit.

input: What does the data say about its Tmax? Entry: CC[C@@]1(O)C(=O)OCc2c1cc1n(c2=O)Cc2cc3c(CN(C)C)c(O)ccc3nc2-1
output: 1.75

----------
assay-notes: Plasma pharmacokinetics of pazopanib in patients, non-compartmental analysis
Assay type: in vivo, human
condition-summary: human, plasma, oral, 800 mg
readout-type: Tmax (h)
Respond numerically; units are h and should not be typed.

input: Give the measured Tmax of Cc1ccc(Nc2nccc(N(C)c3ccc4c(C)n(C)nc4c3)n2)cc1S(N)(=O)=O .
output: 2.98
